- System: CHO cells
- Procedure summary: Cytotoxicity, CCK8 cell counting kit
- Assay type: cell-based
- Test context: after 48 hours of incubation of CHO cells with 10 µM peptides, CCK8, DMEM plus 10 % FCS, 37°C
Provide the recorded Lethality for the entries that follow.
Numbers only; they are read as %.

Query block: Fill in the recorded Lethality for this substance, with CHO cells as test system: RPKPQQFFGLM-NH2 [SP, Substance P, neuromodulator, primary amphipathic peptide, free N-terminal amino group, reference compound]
Result block: 0

Query block: Then what about the substance RQIKIWFQNRRMKWKK-NH2 [pAntp, Penetratin, cell-penetrating peptide, basic, non-amphipathic, 16 residues, reference compound] ?
Result block: 0

Query block: Now the same for RRWWRRWRR-NH2 [RW9, short secondary amphipathic polyarginine-tryptophane peptide, free N-terminal amino group]
Result block: 0

// data source = paper PMC1790702
